- PROTOCOL_TEXT: Leukocyte and erythrocyte counts in peripheral blood of mice with Krebs-2 carcinoma
- Assay type: in vivo
- EXPERIMENTAL_SETUP: Tpc 1 mg/kg i/p and/or 7 50 mg/kg i/p
MEASUREMENT_NAME: Concentration of leukocytes in peripheral blood (thousand/µL)
Expressed in thousand/µL, but write only the number.

Inquiry: Fill in the blank: the reported Concentration of leukocytes in peripheral blood of C/C(NCCCc1cc(C(C)(C)C)c(O)c(C(C)(C)C)c1)=C1\C(=O)C=C2Oc3c(-c4csc(N/N=C/c5ccc(Br)cc5)n4)c(O)c(C)c(O)c3[C@@]2(C)C1=O is ____.
Reply text: 10.1

// next entry
Inquiry: Fill in the blank: the reported Concentration of leukocytes in peripheral blood of CC[C@@]1(O)C(=O)OCc2c1cc1n(c2=O)Cc2cc3c(CN(C)C)c(O)ccc3nc2-1 is ____.
Reply text: 11.2

---

- PROTOCOL_TEXT: MTT cytotoxicity test, MCF-7
- Format: cell-based
- EXPERIMENTAL_SETUP: human, MCF-7 cells (breast cancer), read-out: semitoxic concentration (CC50), MCF-7
MEASUREMENT_NAME: CC50 at 72 h (µM)
Expressed in µM, but write only the number.

Inquiry: Fill in the blank: the reported CC50 at 72 h of C/C(Nc1ccc(Br)cc1)=C1\C(=O)C=C2Oc3c(-c4csc(N/N=C/c5ccc(Br)cc5)n4)c(O)c(C)c(O)c3[C@@]2(C)C1=O is ____.
Reply text: 30

// next entry
Inquiry: Fill in the blank: the reported CC50 at 72 h of CC(=O)C1=C(O)C=C2Oc3c(-c4csc(N/N=C/c5ccc(Br)cc5)n4)c(O)c(C)c(O)c3[C@@]2(C)C1=O [Compound 4, reference compound] is ____.
Reply text: 9.3

---

- PROTOCOL_TEXT: Leukocyte and erythrocyte counts in peripheral blood of mice with Krebs-2 carcinoma
- Format: in vivo
- EXPERIMENTAL_SETUP: 7 50 mg/kg i/g, alone or with Tpc 1 mg/kg i/p
MEASUREMENT_NAME: Concentration of leukocytes in peripheral blood (thousand/µL)
Expressed in thousand/µL, but write only the number.

Inquiry: Fill in the blank: the reported Concentration of leukocytes in peripheral blood of C/C(NCCCc1cc(C(C)(C)C)c(O)c(C(C)(C)C)c1)=C1\C(=O)C=C2Oc3c(-c4csc(N/N=C/c5ccc(Br)cc5)n4)c(O)c(C)c(O)c3[C@@]2(C)C1=O is ____.
Reply text: 10.7

---

The molecules listed here are annotated with their CC50 at 72 h.
- PROTOCOL_TEXT: MTT cytotoxicity test, MRC-5
- Type: cell-based
- EXPERIMENTAL_SETUP: human, MRC-5 cells (lung fibroblasts, nontumor), read-out: semitoxic concentration (CC50), MRC-5

Inquiry: Fill in the blank: the reported CC50 at 72 h of C/C(NCCCc1cc(C(C)(C)C)c(O)c(C(C)(C)C)c1)=C1\C(=O)C=C2Oc3c(-c4csc(N/N=C/c5ccc(Br)s5)n4)c(O)c(C)c(O)c3[C@@]2(C)C1=O is ____.
Reply text: > 100 µM

Inquiry: Fill in the blank: the reported CC50 at 72 h of C/C(NCCCc1cc(C(C)(C)C)c(O)c(C(C)(C)C)c1)=C1\C(=O)C=C2Oc3c(-c4csc(N/N=C/c5ccc(Br)cc5)n4)c(O)c(C)c(O)c3[C@@]2(C)C1=O is ____.
Reply text: > 100 µM

// next entry
Inquiry: Fill in the blank: the reported CC50 at 72 h of CC(=O)C1=C(O)C=C2Oc3c(-c4csc(N/N=C/c5ccc(Br)cc5)n4)c(O)c(C)c(O)c3[C@@]2(C)C1=O [Compound 4, reference compound] is ____.
Reply text: 7 µM
